assay: Acute toxicity in ICR mouse assessed as survival rate at 468.8 mg/kg, ip measured on day 14; format: organism-based; settings: in vivo
Measurement Type: survival at 14 day (%)
Give your result in % as a bare value.

The compound COc1ccc(-c2nc(NC(=O)NCCCC(=O)NO)cc3c2[nH]c2ccccc23)cc1 showed survival at 14 day equal to 50

---

biological target: Histone deacetylase 8 (Homo sapiens); experiment: Inhibition of recombinant human HDAC8 using Boc-Lys (Ac)-AMC as substrate after 60 mins by fluorometric analysis
Sequence (Q9BY41 whole entry): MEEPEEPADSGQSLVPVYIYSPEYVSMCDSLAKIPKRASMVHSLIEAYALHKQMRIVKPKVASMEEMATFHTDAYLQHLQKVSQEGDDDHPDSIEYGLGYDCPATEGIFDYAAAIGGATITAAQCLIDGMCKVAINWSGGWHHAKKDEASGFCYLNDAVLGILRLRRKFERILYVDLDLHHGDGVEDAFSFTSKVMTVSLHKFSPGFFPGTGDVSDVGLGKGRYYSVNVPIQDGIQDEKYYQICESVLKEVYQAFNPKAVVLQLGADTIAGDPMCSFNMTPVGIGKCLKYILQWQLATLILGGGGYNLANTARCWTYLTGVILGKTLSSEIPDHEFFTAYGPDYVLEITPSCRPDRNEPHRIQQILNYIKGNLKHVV
Lab note: anything with IC50 below 400 nM is marked Criterion met; values at 400 nM or higher are marked Criterion not met.

Use the examples below as a reference point.
COc1ccc(-c2nc(NC(=O)NCCCC(=O)NO)cc3c2[nH]c2ccccc23)cc1 Criterion met
COc1ccc(-c2nc(NC(=O)NCCCCC(=O)NO)cc3c2[nH]c2ccccc23)cc1 Criterion met

[in] Please state whether IC50 is below 400 nM for COc1ccc(-c2nc(NC(=O)NCCCC(=O)NO)cc3c4ccccc4n(C)c23)cc1
[out] Criterion not met

[in] Please state whether IC50 is below 400 nM for COc1ccc(-c2nc(NC(=O)NCCC(=O)NO)cc3c2[nH]c2ccccc23)cc1
[out] Criterion not met

---

tested on: HCT-116; experiment: Antiproliferative activity against human HCT116 cells at 25 uM after 48 hrs by MTT assay; type: functional, cell-based
Activity calls are given as the source filed them. The rule behind the calls is not given here.
Measurement Type: Activity

Cc1nc(C(=O)NCCCC(=O)NO)cc2c1[nH]c1ccccc12 inactive
Cc1nc(C(=O)NCCC(=O)NO)cc2c1[nH]c1ccccc12 inactive
Cc1nc(C(=O)NCCCCCC(=O)NO)cc2c1[nH]c1ccccc12 inactive
O=C(CNC(=O)c1cc2c(cn1)[nH]c1ccccc12)NO inactive
COc1ccc(-c2nc(C(=O)NCCC(=O)NO)cc3c2[nH]c2ccccc23)cc1 Active

The compound O=C(CCCCNC(=O)c1cc2c(cn1)[nH]c1ccccc12)NO showed Activity equal to inactive

The compound Cc1nc(C(=O)NCCCCC(=O)NO)cc2c1[nH]c1ccccc12 showed Activity equal to inactive

The compound O=C(CCCNC(=O)c1cc2c(cn1)[nH]c1ccccc12)NO showed Activity equal to inactive

The compound COc1ccc(-c2nc(C(=O)NCCCCCC(=O)NO)cc3c2[nH]c2ccccc23)cc1 showed Activity equal to Active

The compound COc1ccc(-c2nc(C(=O)NCCCC(=O)NO)cc3c2[nH]c2ccccc23)cc1 showed Activity equal to Active

The compound Cc1nc(C(=O)NCC(=O)NO)cc2c1[nH]c1ccccc12 showed Activity equal to inactive

The compound O=C(CCCCCNC(=O)c1cc2c(cn1)[nH]c1ccccc12)NO showed Activity equal to inactive

The compound COc1ccc(-c2nc(C(=O)NCC(=O)NO)cc3c2[nH]c2ccccc23)cc1 showed Activity equal to Active

The compound COc1ccc(-c2nc(C(=O)NCCCCC(=O)NO)cc3c2[nH]c2ccccc23)cc1 showed Activity equal to Active

The compound O=C(CCNC(=O)c1cc2c(cn1)[nH]c1ccccc12)NO showed Activity equal to inactive

---

Measured pIC50 of individual entries
target: Histone deacetylase 1 (Homo sapiens); experiment: Inhibition of recombinant human HDAC1 using Boc-Lys (Ac)-AMC as substrate after 60 mins by fluorometric analysis
Sequence (Q13547 whole entry): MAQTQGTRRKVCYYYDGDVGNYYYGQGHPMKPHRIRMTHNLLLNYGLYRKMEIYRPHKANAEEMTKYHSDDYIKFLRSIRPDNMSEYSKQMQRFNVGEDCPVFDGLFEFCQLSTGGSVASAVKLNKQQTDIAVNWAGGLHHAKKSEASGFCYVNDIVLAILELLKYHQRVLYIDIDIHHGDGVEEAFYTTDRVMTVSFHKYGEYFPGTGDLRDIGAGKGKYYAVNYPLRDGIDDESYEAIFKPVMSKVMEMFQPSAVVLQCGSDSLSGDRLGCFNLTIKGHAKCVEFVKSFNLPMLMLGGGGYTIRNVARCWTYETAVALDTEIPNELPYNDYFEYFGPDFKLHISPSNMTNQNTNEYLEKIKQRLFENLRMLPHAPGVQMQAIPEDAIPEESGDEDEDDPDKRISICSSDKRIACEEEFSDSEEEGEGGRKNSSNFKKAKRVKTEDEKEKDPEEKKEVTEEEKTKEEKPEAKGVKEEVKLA
// pIC50 is dimensionless: -log10 of concentration (M)

Worked set:
COc1ccc(-c2nc(NC(=O)NCCCC(=O)NO)cc3c4ccccc4n(C)c23)cc1 6.62
COc1ccc(-c2nc(NC(=O)NCCCC(=O)NO)cc3c2[nH]c2ccccc23)cc1 7.59
COc1ccc(-c2nc(NC(=O)NCCCCC(=O)NO)cc3c2[nH]c2ccccc23)cc1 7.10

The compound COc1ccc(-c2nc(C(=O)NCCCC(=O)NO)cc3c2[nH]c2ccccc23)cc1 showed pIC50 equal to 6.89

The compound COc1ccc(-c2nc(NC(=O)NCCC(=O)NO)cc3c2[nH]c2ccccc23)cc1 showed pIC50 equal to 6.96

---

test: Acute toxicity in ICR mouse assessed as survival rate at 585.9 mg/kg, ip measured on day 14; format: organism-based; conditions: in vivo
Measurement Type: survival at 14 day
Answer with the figure and its unit, nothing else.

The compound COc1ccc(-c2nc(NC(=O)NCCCC(=O)NO)cc3c2[nH]c2ccccc23)cc1 showed survival at 14 day equal to 30%

---

experiment: Acute toxicity in ip dosed ICR mouse measured for 14 days; assay type: organism-based; details: in vivo
Measurement Type: LD50 at 336 h (mg/kg)
Give your result in mg/kg as a bare value.

The molecule COc1ccc(-c2nc(NC(=O)NCCCC(=O)NO)cc3c2[nH]c2ccccc23)cc1 showed LD50 at 336 h equal to 472

---

biological target: Histone deacetylase; assay: Inhibition of HDAC in human HeLa cell nuclear extract using Boc-Lys (Ac)-AMC as substrate after 60 mins by fluorometric analysis; format: cell-based
Lab note: anything with IC50 below 1000 nM is marked True; values at 1000 nM or higher are marked False.

Cc1nc(C(=O)NCC(=O)NO)cc2c1[nH]c1ccccc12 False
COc1ccc(-c2nc(NC(=O)NCCCCCC(=O)NO)cc3c2[nH]c2ccccc23)cc1 True
O=C(CNC(=O)c1cc2c(cn1)[nH]c1ccccc12)NO False
COc1ccc(-c2nc(NC(=O)NCCC(=O)NO)cc3c4ccccc4n(C)c23)cc1 False
Cc1nc(C(=O)NCCCC(=O)NO)cc2c1[nH]c1ccccc12 False
COc1ccc(-c2nc(NC(=O)NCCCCC(=O)NO)cc3c2[nH]c2ccccc23)cc1 True
COc1ccc(-c2nc(C(=O)NCCCCCC(=O)NO)cc3c2[nH]c2ccccc23)cc1 False
COc1ccc(-c2nc(NC(=O)NCC(=O)NO)cc3c4ccccc4n(C)c23)cc1 False
COc1ccc(-c2nc(NC(=O)NCC(=O)NO)cc3c2[nH]c2ccccc23)cc1 False
COc1ccc2c(c1)[nH]c1c(C)nccc12 False

Switching to the query record.
[in] Please state whether IC50 is below 1000 nM for O=C(CCCCNC(=O)c1cc2c(cn1)[nH]c1ccccc12)NO
[out] False

---

assay: Acute toxicity in ICR mouse assessed as survival rate at 375 mg/kg, ip measured on day 14; type: organism-based; conditions: in vivo
Measurement Type: survival at 14 day (%)
Give your result in % as a bare value.

The compound COc1ccc(-c2nc(NC(=O)NCCCC(=O)NO)cc3c2[nH]c2ccccc23)cc1 showed survival at 14 day equal to 70

---

assay: Acute toxicity in ICR mouse assessed as survival rate at 240 mg/kg, ip measured on day 14; assay type: organism-based; conditions: in vivo
Measurement Type: survival at 14 day (%)
Give your result in % as a bare value.

The compound COc1ccc(-c2nc(NC(=O)NCCCC(=O)NO)cc3c2[nH]c2ccccc23)cc1 showed survival at 14 day equal to 100

---

molecular target: Histone deacetylase; assay: Inhibition of HDAC in human HeLa cell nuclear extract using Boc-Lys (Ac)-AMC as substrate after 60 mins by fluorometric analysis; assay type: cell-based
Lab note: anything with IC50 below 1 µM is marked t; values at 1 µM or higher are marked f.

COc1ccc(-c2nc(NC(=O)NCCCCCC(=O)NO)cc3c4ccccc4n(C)c23)cc1 f

[in] Please state whether IC50 is below 1 µM for O=C(CCCNC(=O)c1cc2c(cn1)[nH]c1ccccc12)NO
[out] f

[in] Please state whether IC50 is below 1 µM for Cc1nc(C(=O)NCCCCC(=O)NO)cc2c1[nH]c1ccccc12
[out] f

[in] Please state whether IC50 is below 1 µM for COc1ccc(-c2nc(C(=O)NCC(=O)NO)cc3c2[nH]c2ccccc23)cc1
[out] f

[in] Please state whether IC50 is below 1 µM for COc1ccc(-c2nc(NC(=O)NCCCCC(=O)NO)cc3c4ccccc4n(C)c23)cc1
[out] t

---

tested on: SW480; experiment: Antiproliferative activity against human SW480 cells assessed as cell viability after 48 hrs by MTT assay; format: functional, cell-based; conditions: SW480, 48 h
Measurement Type: pIC50
// pIC50 is dimensionless: -log10 of concentration (M)

COc1ccc(-c2nc(NC(=O)NCCCC(=O)NO)cc3c2[nH]c2ccccc23)cc1 5.94
COc1ccc(-c2nc(NC(=O)NCC(=O)NO)cc3c4ccccc4n(C)c23)cc1 5.01
COc1ccc(-c2nc(NC(=O)NCCCCC(=O)NO)cc3c2[nH]c2ccccc23)cc1 5.76
COc1ccc(-c2nc(C(=O)NCCC(=O)NO)cc3c2[nH]c2ccccc23)cc1 4.95
COc1ccc(-c2nc(C(=O)NCCCCC(=O)NO)cc3c2[nH]c2ccccc23)cc1 5.35
COc1ccc(-c2nc(C(=O)NCCCCCC(=O)NO)cc3c2[nH]c2ccccc23)cc1 5.01

The molecule COc1ccc(-c2nc(NC(=O)NCCCC(=O)NO)cc3c4ccccc4n(C)c23)cc1 showed pIC50 equal to 5.50
